Values compiled from patent US20250215104A1.

# maps each entry to its koff
Target: T1, cynomolgus soluble urokinase plasminogen activator receptor (suPAR) (cynomolgus, UniProt Q9GK78 23-303, limits assumed)
T1 construct: Target antigen of the scFv off-rate screen; also called cynomolgus suPAR; cynomolgus uPAR
T1 sequence (Q9GK78 23-303 limits assumed): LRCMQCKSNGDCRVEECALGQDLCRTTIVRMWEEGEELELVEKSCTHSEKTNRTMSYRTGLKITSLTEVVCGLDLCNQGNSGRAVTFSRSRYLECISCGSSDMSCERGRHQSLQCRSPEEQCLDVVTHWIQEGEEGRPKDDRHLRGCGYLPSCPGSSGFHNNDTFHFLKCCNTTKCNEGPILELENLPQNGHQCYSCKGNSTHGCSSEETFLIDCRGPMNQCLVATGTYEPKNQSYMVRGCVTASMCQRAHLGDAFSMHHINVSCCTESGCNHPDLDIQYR
Assay: BLI (Octet) off-rate screen of scFv clones
PROPERTY LABEL: koff (s⁻¹)

[
  {
    "BINDER": "suPAR_DB06_D05 (scFv, V domains shown) VH: QVQLVQSGAEVKKPGASVKVSCKASGGTFTGYYMHWVRQAPGQGLEWMGWIDPSGGNTIYDQKFQGRVTMTRDTSTSTVYMELSSLRSEDTAVYYCARGYDVDWFVYWGQGTLVTVSS VL: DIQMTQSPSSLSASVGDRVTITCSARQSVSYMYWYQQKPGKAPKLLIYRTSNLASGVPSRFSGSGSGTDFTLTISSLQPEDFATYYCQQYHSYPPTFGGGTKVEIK",
    "UNIT TEXT": "s⁻¹",
    "REPORTED VALUE": 0.000222
  },
  {
    "BINDER": "suPAR_DB06_C12 (scFv, V domains shown) VH: QVQLVQSGAEVKKPGASVKVSCKASGYSFTANYIHWVRQAPGQGLEWMGWIDHENGNTIYDQKFQGRVTMTRDTSTSTVYMELSSLRSEDTAVYYCANGYDVDWFVYWGQGTLVTVSS VL: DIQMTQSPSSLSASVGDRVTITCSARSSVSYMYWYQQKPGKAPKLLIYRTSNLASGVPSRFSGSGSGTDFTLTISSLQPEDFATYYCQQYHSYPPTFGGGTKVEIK",
    "UNIT TEXT": "s⁻¹",
    "REPORTED VALUE": "7.52e-05"
  },
  {
    "BINDER": "suPAR_DB06_F04 (scFv, V domains shown) VH: QVQLVQSGAEVKKPGASVKVSCKASGYRFTSYYMHWVRQAPGQGLEWMGWIDPENGNTIYAQKFQGRVTMTRDTSTSTVYMELSSLRSEDTAVYYCARGYDVDWFVYWGQGTLVTVSS VL: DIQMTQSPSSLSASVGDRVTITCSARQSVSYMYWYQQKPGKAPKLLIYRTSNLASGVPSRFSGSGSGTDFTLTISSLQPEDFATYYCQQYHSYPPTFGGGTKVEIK",
    "UNIT TEXT": "s⁻¹",
    "REPORTED VALUE": 0.000315
  },
  {
    "BINDER": "suPAR_DB06_C06 (scFv, V domains shown) VH: QVQLVQSGAEVKKPGASVKVSCKASGYTFSNYYMHWVRQAPGQGLEWMGWIDHEGGNTSYAQKFQGRVTMTRDTSTSTVYMELSSLRSEDTAVYYCARGYDVDWFVYWGQGTLVTVSS VL: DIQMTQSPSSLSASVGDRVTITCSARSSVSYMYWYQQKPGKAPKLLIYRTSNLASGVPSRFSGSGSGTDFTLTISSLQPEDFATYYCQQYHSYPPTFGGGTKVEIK",
    "UNIT TEXT": "s⁻¹",
    "REPORTED VALUE": 0.00025
  },
  {
    "BINDER": "suPAR_DB06_E03 (scFv, V domains shown) VH: QVQLVQSGAEVKKPGASVKVSCKASGFNIKDYYIHWVRQAPGQGLEWMGWIDPENGNTSYDQKFQGRVTMTRDTSTSTVYMELSSLRSEDTAVYYCARGYDVDWFVYWGQGTLVTVSS VL: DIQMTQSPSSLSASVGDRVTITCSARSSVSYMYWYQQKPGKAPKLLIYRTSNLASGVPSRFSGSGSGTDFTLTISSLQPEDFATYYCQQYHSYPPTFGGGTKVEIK",
    "UNIT TEXT": "s⁻¹",
    "REPORTED VALUE": 0.00037
  },
  {
    "BINDER": "suPAR_DB06_F12 (scFv, V domains shown) VH: QVQLVQSGAEVKKPGASVKVSCKASGYTFSSYYMHWVRQAPGQGLEWMGWIDPENGNTIYAQKFQGRVTMTRDTSTSTVYMELSSLRSEDTAVYYCARGYDVDWFVYWGQGTLVTVSS VL: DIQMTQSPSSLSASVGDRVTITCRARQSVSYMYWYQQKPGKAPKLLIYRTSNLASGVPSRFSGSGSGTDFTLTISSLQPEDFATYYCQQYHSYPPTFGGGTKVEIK",
    "UNIT TEXT": "s⁻¹",
    "REPORTED VALUE": 0.000195
  },
  {
    "BINDER": "suPAR_DB06_D08 (scFv, V domains shown) VH: QVQLVQSGAEVKKPGASVKVSCKASGYTFTNYYMHWVRQAPGQGLEWMGWIDPEGGNTSYDQKFQGRVTMTRDTSTSTVYMELSSLRSEDTAVYYCARGYDVDWFVYWGQGTLVTVSS VL: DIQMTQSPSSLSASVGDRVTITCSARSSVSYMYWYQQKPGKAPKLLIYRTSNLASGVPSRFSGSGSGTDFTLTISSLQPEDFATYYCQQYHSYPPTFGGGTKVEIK",
    "UNIT TEXT": "s⁻¹",
    "REPORTED VALUE": 0.000715
  },
  {
    "BINDER": "suPAR_DB06_D09 (scFv, V domains shown) VH: QVQLVQSGAEVKKPGASVKVSCKASGGTFTSYYMHWVRQAPGQGLEWMGWIDHENGSTIYAQKFQGRVTMTRDTSTSTVYMELSSLRSEDTAVYYCARGYDVDWFVYWGQGTLVTVSS VL: DIQMTQSPSSLSASVGDRVTITCSASSSVSYMYWYQQKPGKAPKLLIYRTSNLASGVPSRFSGSGSGTDFTLTISSLQPEDFATYYCQQYHSYPPTFGGGTKVEIK",
    "UNIT TEXT": "s⁻¹",
    "REPORTED VALUE": 0.000341
  },
  {
    "BINDER": "suPAR_DB06_G03 (scFv, V domains shown) VH: QVQLVQSGAEVKKPGASVKVSCKASGYTFSSYYMHWVRQAPGQGLEWMGWIDPEGGNTIYAQKFQGRVTMTRDTSTSTVYMELSSLRSEDTAVYYCARGYDVDWFVYWGQGTLVTVSS VL: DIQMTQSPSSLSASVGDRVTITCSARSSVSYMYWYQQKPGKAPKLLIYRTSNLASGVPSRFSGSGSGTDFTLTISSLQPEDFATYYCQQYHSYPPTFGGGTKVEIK",
    "UNIT TEXT": "s⁻¹",
    "REPORTED VALUE": 0.000231
  },
  {
    "BINDER": "suPAR_DB06_E02 (scFv, V domains shown) VH: QVQLVQSGAEVKKPGASVKVSCKASGYSFTNYYMHWVRQAPGQGLEWMGWIDHENGNTIYDQKFQGRVTMTRDTSTSTVYMELSSLRSEDTAVYYCARGYDVDWFVYWGQGTLVTVSS VL: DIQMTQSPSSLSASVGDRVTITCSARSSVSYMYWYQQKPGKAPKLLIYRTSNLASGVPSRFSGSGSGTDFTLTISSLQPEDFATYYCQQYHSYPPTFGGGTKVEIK",
    "UNIT TEXT": "s⁻¹",
    "REPORTED VALUE": 0.000589
  }
]
